Data provenance is paper PMC10786891.

This section presents binders with their documented pKd values.
TARGET OF ASSAY: T1, EsCas13d, nuclease-dead (Eubacterium siraeum, UniProt B0MS50, R295A;H300A;R849A;H854A)
T1 sequence: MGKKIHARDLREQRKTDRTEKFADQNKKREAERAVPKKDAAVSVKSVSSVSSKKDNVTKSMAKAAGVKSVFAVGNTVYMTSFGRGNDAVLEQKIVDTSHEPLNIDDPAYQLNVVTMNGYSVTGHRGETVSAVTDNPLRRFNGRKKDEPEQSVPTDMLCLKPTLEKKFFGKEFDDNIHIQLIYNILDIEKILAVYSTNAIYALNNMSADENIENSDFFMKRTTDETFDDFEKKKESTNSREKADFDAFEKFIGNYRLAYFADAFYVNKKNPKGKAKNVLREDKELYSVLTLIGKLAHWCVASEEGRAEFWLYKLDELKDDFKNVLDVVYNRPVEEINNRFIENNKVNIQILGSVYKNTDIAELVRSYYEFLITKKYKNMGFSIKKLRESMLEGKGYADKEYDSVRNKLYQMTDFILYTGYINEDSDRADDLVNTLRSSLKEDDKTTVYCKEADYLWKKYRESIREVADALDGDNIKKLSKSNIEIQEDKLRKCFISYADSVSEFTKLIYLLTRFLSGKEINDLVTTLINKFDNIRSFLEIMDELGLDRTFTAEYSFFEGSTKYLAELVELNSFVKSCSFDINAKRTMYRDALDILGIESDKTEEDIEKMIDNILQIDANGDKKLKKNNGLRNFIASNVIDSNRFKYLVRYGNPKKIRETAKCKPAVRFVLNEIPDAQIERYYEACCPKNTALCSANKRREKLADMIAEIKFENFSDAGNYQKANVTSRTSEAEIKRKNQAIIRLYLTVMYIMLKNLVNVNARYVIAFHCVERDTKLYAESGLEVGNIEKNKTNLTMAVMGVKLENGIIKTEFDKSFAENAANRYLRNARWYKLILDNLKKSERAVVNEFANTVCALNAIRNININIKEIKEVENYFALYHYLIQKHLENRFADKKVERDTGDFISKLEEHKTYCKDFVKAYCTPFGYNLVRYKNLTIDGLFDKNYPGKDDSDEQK
EXPERIMENT DESCRIPTION: crRNA (strand 1, pre-loaded); Mg2+; 40 mM Tris-HCl pH 7.5, 150 mM NaCl, 6 mM MgCl2, 1 mM DTT, 0.1% Tween-20, 0.2 mg/ml BSA; 25 C; 10 min per concentration, then washed
MEASUREMENT CONDITIONS: tags: His6-TwinStrep-SUMO cleaved; N-terminal SNAP kept (SNAP-Surface 488); label: 3' end held by stalled T7 RNA polymerase
Please note pKd is a logarithmic value: minus log10 of concentration in mol/L. Answer with that number alone.

| BINDER | READOUT KIND | ENDPOINT RESULT |
| --- | --- | --- |
| target 1 U10G,A20C (mixed) RNA 1: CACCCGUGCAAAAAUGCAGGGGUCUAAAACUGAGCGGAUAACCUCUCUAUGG RNA 2: GGGAAUGGAUCCACAUCUACGAAUUCGUACCCUAGAGAGGUGAUCCGCUCACCGAGAUCGGAAGAGCACACGU | pKd | 7.12 |
| target 1 insC 3' of 12,insA 3' of 7 (mixed) RNA 1: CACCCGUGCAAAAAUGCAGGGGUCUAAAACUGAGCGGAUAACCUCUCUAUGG RNA 2: GGGAAUGGAUCCACAUCUACGAAUUCGUACCAUAGAGAGGCUUAUCACGCUCACCGAGAUCGGAAGAGCACACGU | pKd | 7.90 |
| target 1 U8G,A9G (mixed) RNA 1: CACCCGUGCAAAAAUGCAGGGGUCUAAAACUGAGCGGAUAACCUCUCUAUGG RNA 2: GGGAAUGGAUCCACAUCUACGAAUUCGUACCAUAGAGAGGUUGGCCGCUCACCGAGAUCGGAAGAGCACACGU | pKd | 7.72 |

Now consider a different binder.
stdin: Would you kindly share the measured pKd for target 1 MT 5'PFS GUU 3'PFS CAA (mixed) RNA 1: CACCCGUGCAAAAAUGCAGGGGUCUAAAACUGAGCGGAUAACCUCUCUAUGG RNA 2: GGGAAUGGAUCCACAUCUACGAAUUCGUUCCAUAGAGAGGUUAUCCGCUCACAAAGAUCGGAAGAGCACACGU ?
stdout: 7.25
